Reference for the values: PubChem BioAssay AID540269

Target: glucose-6-phosphate dehydrogenase-6-phosphogluconolactonase (Plasmodium falciparum 3D7)
Assay: PfG6PD enzyme inhibitors, kinetic NADPH readout, dose response, orthogonal assay, biochemical, kinetic NADPH detection (AID 540269)
Settings: purified PfG6PD-6PGL
Calls of active or inactive are those of the source. The rule behind the calls is not given here.
observation-type: IC50

{"compound": "O=c1[nH]c2ccc(NCc3ccccc3OCc3ccc(Cl)cc3)cc2[nH]1", "observed-value": "> 80 µM (inactive)"}
{"compound": "C=CCOc1c(Cl)cc(CNc2ccc3[nH]c(=O)[nH]c3c2)cc1OC", "observed-value": "> 80 µM (inactive)"}
{"compound": "C=CCc1ccccc1OCC(=O)N/N=C/c1ccccc1OCC", "observed-value": "> 80 µM (inactive)"}
{"compound": "Cc1ccc(/C=C2\\C(=O)NC(=S)N(c3ccccc3F)C2=O)s1", "observed-value": "> 80 µM (inactive)"}

Request: May I ask what IC50 has been recorded for Cc1ccc(NS(=O)(=O)c2ccccc2Cl)c2c1CC(C)(C)O2 ?
Result: > 80 µM (inactive)

Request: May I ask what IC50 has been recorded for CC(=O)Nc1ccc(S(=O)(=O)/N=C2\C(=O)c3ccccc3C([O-])=C2n2cc[n+](-c3ccccn3)c2)cc1 ?
Result: > 80 µM (inactive)

Request: May I ask what IC50 has been recorded for CC1COCC(C)N1C1=C(Cl)C(=O)c2ccccc2C1=O (stereo not drawn) ?
Result: 42.4 µM

Request: May I ask what IC50 has been recorded for O=c1ccsn1Cc1ccccc1 ?
Result: 57.9 µM

Request: May I ask what IC50 has been recorded for Oc1ccc(NCc2ccccc2OCc2ccccc2)cc1 ?
Result: 53.9 µM

Request: May I ask what IC50 has been recorded for O=C(Nc1nnc(S(=O)(=O)N2CCCCCC2)s1)c1cccc(Br)c1 ?
Result: 14.1 µM

---

Target: glucose-6-phosphate dehydrogenase-6-phosphogluconolactonase (Plasmodium falciparum 3D7)
Assay: PfG6PD enzyme inhibitors, kinetic NADPH readout, dose response, orthogonal assay, biochemical, kinetic NADPH detection (AID 540269)
Details: purified PfG6PD-6PGL
Activity calls are given as the source filed them. How the calls were made is not given here.
Outcome (select one): active, inactive

{"smiles-structure": "Cc1ccc(SC2=C(Sc3ccc(C)cc3)C(=O)c3ccccc3C2=O)cc1", "cat": "active"}
{"smiles-structure": "COc1cc(CNc2ccc(N3CCCC3)cc2)ccc1OCc1ccccc1F", "cat": "inactive"}
{"smiles-structure": "O=S(=O)(Nc1cccc2cccnc12)c1ccccc1", "cat": "active"}
{"smiles-structure": "CNS(=O)(=O)c1ccc(-c2ccc(C=C3C(=O)NC(=O)NC3=O)o2)cc1", "cat": "active"}
{"smiles-structure": "Cn1c(=O)c2c([nH]c(=S)n2CCCc2ccccc2)n(C)c1=O", "cat": "active"}
{"smiles-structure": "O=C(CCSCCC(=O)NN=Cc1ccccc1)NN=Cc1ccccc1", "cat": "inactive"}
{"smiles-structure": "NS(=O)(=O)c1ccc(N/N=C/c2ccc(O)c(O)c2O)c([N+](=O)[O-])c1", "cat": "inactive"}
{"smiles-structure": "O=C(Nc1ccc([N+](=O)[O-])cc1Cl)c1cc(Cl)ccc1O", "cat": "inactive"}

Request: What did the test return for O=C(Cn1sc2ccccc2c1=O)Nc1ccc(Br)cc1 ?
Result: active

Request: What did the test return for CCOc1ccc(N(CC(=O)N/N=C/c2cc([N+](=O)[O-])ccc2Cl)S(C)(=O)=O)cc1 ?
Result: inactive

Request: What did the test return for O=S(=O)(Nc1ccccc1F)c1cccc(NC(=S)NCCN2CCOCC2)c1 ?
Result: active
